The origin of these recorded values is patent US8809352B2.

# assay_system: BCL2 (Homo sapiens)
# Sequence (P10415 whole entry): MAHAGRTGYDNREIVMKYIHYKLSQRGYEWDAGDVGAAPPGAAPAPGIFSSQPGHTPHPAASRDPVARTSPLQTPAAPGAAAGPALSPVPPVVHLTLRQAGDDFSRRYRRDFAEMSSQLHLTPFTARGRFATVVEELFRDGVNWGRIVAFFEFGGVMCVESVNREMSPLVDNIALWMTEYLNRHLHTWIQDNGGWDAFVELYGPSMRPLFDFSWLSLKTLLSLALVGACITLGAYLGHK
pIC50: −log10 of the molar value.
parameter_measured: pIC50

Reference set, count: 3
| compound | pIC50 |
| --- | --- |
| CN(C)CC[C@H](CSc1ccccc1)Nc1ccc(S(=O)(=O)Nc2ncnc3c2CCN(C2CCN(Cc4ccccc4-c4ccc(Cl)cc4)CC2)C3)cc1S(=O)(=O)C(F)(F)F [Example 11] | 7.70 |
| CC1(C)CCC(CN2CCC(N3CCc4c(ncnc4NS(=O)(=O)c4ccc(N[C@H](CCN5CCOCC5)CSc5ccccc5)c(S(=O)(=O)C(F)(F)F)c4)C3)CC2)=C(c2ccc(Cl)cc2)C1 [Example 16] | 7.39 |
| CN(C)CC[C@H](CSc1ccccc1)Nc1ccc(S(=O)(=O)Nc2ncnc3c2CCN(C2CCN(Cc4ccccc4Br)CC2)C3)cc1S(=O)(=O)C(F)(F)F [Example 7] | 6.30 |

A: CC(c1ccccc1-c1ccc(Cl)cc1)N1CCC(N2CCc3c(ncnc3NS(=O)(=O)c3ccc(N[C@H](CCN(C)C)CSc4ccccc4)c(S(=O)(=O)C(F)(F)F)c3)C2)CC1 (some centres unmarked) [Example 51]
B: O=S(=O)(Nc1nnc2n1CCN(C1CCCN(Cc3ccccc3-c3ccc(Cl)cc3)CC1)C2)c1ccc(N[C@H](CCN2CCOCC2)CSc2ccccc2)c(S(=O)(=O)C(F)(F)F)c1 (some centres unmarked) [Example 95]
Query: Sorting by pIC50 in descending order, would A or B appear first? Give the label of your selection.
Response: A
(A: 7.46, B: 5.72)

1: CC(c1cc(F)ccc1-c1ccc(Cl)cc1)N1CCC(N2CCc3c(ncnc3NS(=O)(=O)c3ccc(N[C@H](CCN4CCOCC4)CSc4ccccc4)c(S(=O)(=O)C(F)(F)F)c3)C2)CC1 (some centres unmarked) [Example 31]
2: [2H]C1(N2CCc3c(ncnc3NS(=O)(=O)c3ccc(N[C@H](CCN4CCCC4)CSc4ccccc4)c(S(=O)(=O)C(F)(F)F)c3)C2)CCN(CC2=C(c3ccc(Cl)cc3)CC(C)(C)CC2)CC1 [Example 85]
Query: Sorting by pIC50 in descending order, would 1 or 2 appear first? Give the label of your selection.
Response: 2

a: CN(C)CC[C@H](CSc1ccccc1)Nc1ccc(S(=O)(=O)Nc2nc(C(F)(F)F)nc3c2CCN(C2CCN(CC4=C(c5ccc(Cl)cc5)CCC(C)(C)C4)CC2)C3)cc1S(=O)(=O)C(F)(F)F [Example 70]
b: CN(C)CC[C@H](CSc1ccccc1)Nc1ccc(S(=O)(=O)Nc2ncnc3c2CCN(C2CCC(=Cc4ccccc4-c4ccc(Cl)cc4)CC2)C3)cc1S(=O)(=O)C(F)(F)F (some centres unmarked) [Example 62]
Query: Sorting by pIC50 in descending order, would a or b appear first? Give the label of your selection.
Response: a
(a: 7.29, b: 6.76)

a: CN(C)CC[C@H](CSc1ccccc1)Nc1ccc(S(=O)(=O)Nc2ncnc3c2CCN(C2CCN(Cc4ccccc4-c4ccc(Cl)cc4)CC2)C3)cc1C(F)(F)F [Example 53]
b: CN(C)CC[C@H](CSc1c(Cl)cccc1Cl)Nc1ccc(S(=O)(=O)Nc2ncnc3c2CCN(C2CCN(Cc4ccccc4-c4ccc(Cl)cc4)CC2)C3)cc1S(=O)(=O)C(F)(F)F [Example 38]
c: CCC[C@H](CSc1ccccc1)Nc1ccc(S(=O)(=O)Nc2ncnc3c2CCN(C2CCN(CC4=C(c5ccc(Cl)cc5)CC(C)(C)CC4)CC2)C3)cc1S(=O)(=O)C(F)(F)F [Example 59]
Query: Sort (3 compounds) by pIC50: min first. Show the ranking through the labels, in the order asked for.
Response: c, a, b

I: C[C@H]1CC(N2CCc3c(ncnc3NS(=O)(=O)c3ccc(N[C@H](CCN(C)C)CSc4ccccc4)c([N+](=O)[O-])c3)C2)CCN1Cc1ccccc1-c1ccc(Cl)cc1 (mixture of isomers) [Example 3]
II: [2H]C1(N2CCc3c(ncnc3NS(=O)(=O)c3ccc(N[C@H](CCN4CCN(C)CC4)CSc4ccccc4F)c(S(=O)(=O)C(F)(F)F)c3)C2)CCN(Cc2cc(F)ccc2-c2ccc(Cl)cc2)CC1 [Example 87]
III: O=S(=O)(Nc1ncnc2c1CCN(C1CCN(Cc3ccccc3-c3ccc(Cl)cc3)CC1)C2)c1ccc(NCCSc2ccccc2)c(S(=O)(=O)C(F)(F)F)c1 [Example 52]
IV: CN(C)CC[C@H](CSc1ccccc1)Nc1ccc(S(=O)(=O)Nc2nc(C(F)(F)F)nc3c2CCN(C2CCN(Cc4ccccc4-c4ccc(Cl)cc4)CC2)C3)cc1[N+](=O)[O-] [Example 71]
V: C[C@H](CSc1ccccc1)Nc1ccc(S(=O)(=O)Nc2ncnc3c2CCN(C2CCN(CC4=C(c5ccc(Cl)cc5)CC(C)(C)CC4)CC2)C3)cc1S(=O)(=O)C(F)(F)F [Example 45]
Query: Sort (5 compounds) by pIC50: min first. Show the ranking through the labels, in the order asked for.
Response: III, V, I, II, IV

I: CC1(C)CCC(c2ccc(Cl)cc2)=C(CN2CCC(N3CCc4c(ncnc4NS(=O)(=O)c4ccc(N[C@H](CCN5CCOCC5)CSc5ccccc5)c(S(=O)(=O)C(F)(F)F)c4)C3)CC2)C1 [Example 8]
II: [2H]C1(N2CCc3c(ncnc3NS(=O)(=O)c3ccc(N[C@H](CCN(C)C(C)C)CSc4ccccc4)c(S(=O)(=O)C(F)(F)F)c3)C2)CCN(CC2=C(c3ccc(Cl)cc3)CC(C)(C)CC2)CC1 [Example 78]
Query: Sorting by pIC50 in descending order, would I or II appear first? Give the label of your selection.
Response: II
(II: 7.39, I: 7.12)
